# experimentalSystem: T1, TIA1 RRM2-3 (Homo sapiens, UniProt P31483-2 93-274)
# T1 sequence: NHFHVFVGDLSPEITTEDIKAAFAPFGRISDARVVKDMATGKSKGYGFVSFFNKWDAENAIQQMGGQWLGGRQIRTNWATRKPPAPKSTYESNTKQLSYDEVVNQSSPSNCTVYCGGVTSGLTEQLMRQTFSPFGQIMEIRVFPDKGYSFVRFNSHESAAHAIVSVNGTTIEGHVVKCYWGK
# experimentDescription: EMSA; 10 mM sodium phosphate pH 6.5, 50 mM NaCl, 1 mM DTT; room temperature, 20 min; 1.2% agarose; protein 0.1-10 uM; RNA annealed in 10 mM Tris pH 7.5, 100 mM KCl
# conditionContext: tags: His6-SUMO (cleaved; BamHI linker Ser or Gly-Ser may stay); label: 5' Cy3
Threshold-based label: Kd under 3 µM gives T, Kd not under 3 µM gives F.

UGUUCUCUGAACGAACUUUAA (structured_RNA) [SL3 A68G] ... T

Is Kd of UGUUCUCUAAACGAACUUAAA (structured_RNA) [SL3 U78A] strictly below 3 µM?
F

Also UGUUCUCUCAACGAACUUUAA (structured_RNA) [SL3 A68C] , if possible.
T

Also UGUUCUCCAAACGAACUUUAA (structured_RNA) [SL3 U67C] , if possible.
F

Also UGUUCUCUAAACGAACUAUAA (structured_RNA) [SL3 U77A] , if possible.
F

Also UGUUCUCUAAACGAACUGUAA (structured_RNA) [SL3 U77G] , if possible.
F

Also UGUUCUCUAAACGAACAUUAA (structured_RNA) [SL3 U76A] , if possible.
F
